What EC50 was measured for each of the following?
# Test system: OCI-Ly19
# TEST METHOD NOTES: CellTiter-Glo cell viability assay
# Assay type: cell-based
# SETTINGS: Homo sapiens, OCI-LY19, 72 h
Include the unit after the number when you answer.

// for each molecule below, give its EC50
1. CCN1CCN(Cc2ccc(NC(=O)c3ccc(C)c(Oc4cc(Nc5cn[nH]c5)ncn4)c3)cc2C(F)(F)F)CC1 [(A-7)]
2. CCN1CCN(Cc2ccc(NC(=O)c3ccc(C)c(Oc4cc(NC(=O)C5CC5)ncn4)c3)cc2C(F)(F)F)CC1 [(A-3)]
3. C=CC(=O)Nc1cc(Oc2cc(C(=O)Nc3ccc(CN4CCN(CC)CC4)c(C(F)(F)F)c3)ccc2C)ncn1 [(A-17)]
4. CCN1CCN(Cc2ccc(NC(=O)c3ccc(C)c(Oc4ccnc(Nc5cnn(C)c5)n4)c3)cc2C(F)(F)F)CC1 [(A-14)]

1. 192 nM
2. 600 nM
3. 188 nM
4. 179 nM
